Data provenance: the supplement of paper PMC5908809

Test system: normal primary NK cells, pool 3 (3 donors) (IL-2 2.5 ng/mL)
Assay: percent inhibition of viability; higher = more inhibition
Details: 72 h; 1 nM
observable: percent inhibition of viability (%)
API: value field is a number in %; no unit string.

As a guide, the following entries are already answered.
molecule	percent inhibition of viability [%]
CC[C@H](C)C(=O)O[C@H]1C[C@@H](C)C=C2C=C[C@H](C)[C@H](CC[C@@H]3C[C@@H](O)CC(=O)O3)[C@H]21 [Lovastatin] (max concentration tested 10000 nM)	-7.92
CC(C)NC[C@@H](C(=O)N1CCN(c2ncnc3c2[C@H](C)C[C@H]3O)CC1)c1ccc(Cl)cc1 [Ipatasertib] (max concentration tested 10000 nM)	5.55
CC/C(=C(\c1ccccc1)c1ccc(OCCN(C)C)cc1)c1ccccc1 [Tamoxifen] (max concentration tested 10000 nM)	-1.03
Cc1ccc(-n2nc(C(C)(C)C)cc2NC(=O)Nc2ccc(OCCN3CCOCC3)c3ccccc23)cc1 [Doramapimod] (max concentration tested 10000 nM)	-11.6
O=P1(NCCCl)OCCCN1CCCl (stereo not drawn) [Ifosfamide] (max concentration tested 10000 nM)	-13.4
CN1CCN(c2nc(C3=C(c4c[nH]c5ccccc45)C(=O)NC3=O)c3ccccc3n2)CC1 [Sotrastaurin] (max concentration tested 10000 nM)	-3.26

QUERY: What measured percent inhibition of viability is associated with NC(=O)c1cccc(-c2cccc(OC(=O)NC3CCCCC3)c2)c1 [URB597] (max concentration tested 1000 nM) on normal primary NK cells, pool 3 (3 donors) (IL-2 2.5 ng/mL)?
RESULT: -1.33

QUERY: What measured percent inhibition of viability is associated with O=C(CCCCCCC(=O)Nc1ccccc1)NO [Vorinostat] (max concentration tested 10000 nM) on normal primary NK cells, pool 3 (3 donors) (IL-2 2.5 ng/mL)?
RESULT: -8.36

* * *

Test system: DERL-7 (IL-2 2.5 ng/mL)
Assay: percent inhibition of viability; higher = more inhibition
Conditions: 72 h; 25 nM
percent inhibition of viability values by entry

As a guide, the following entries are already answered.
molecule	system name	observable	reported measurement
CC(=O)OC[C@H]1O[C@@H]([S-])[C@H](OC(C)=O)[C@@H](OC(C)=O)[C@@H]1OC(C)=O.CCP(CC)CC.[Au+] [Auranofin] (max concentration tested 2500 nM)	DERL-7 (IL-2 2.5 ng/mL)	percent inhibition of viability	8.16%
CC(C)(C)c1nc(-c2cccc(NS(=O)(=O)c3c(F)cccc3F)c2F)c(-c2ccnc(N)n2)s1 [Dabrafenib] (max concentration tested 2500 nM)	DERL-7 (IL-2 2.5 ng/mL)	percent inhibition of viability	-0.47%
COc1ccc2c(OCc3nnc4ccc(-c5ccccc5)nn34)ccnc2c1 [AMG-208] (max concentration tested 2500 nM)	DERL-7 (IL-2 2.5 ng/mL)	percent inhibition of viability	-1.7%

Shift focus to the following entry.
QUERY: For CC(C)Cn1cnc2c(N)nc3ccccc3c21 [Imiquimod] (max concentration tested 2500 nM) , what is its reported percent inhibition of viability?
RESULT: -3.41%

* * *

Tested on: normal primary NK cells, pool 3 (3 donors) (IL-2 2.5 ng/mL)
Assay: percent inhibition of viability; higher = more inhibition
Settings: 72 h; 1000 nM
observable: percent inhibition of viability (%)
API: value field is a number in %; no unit string.

As a guide, the following entries are already answered.
compound	unit name	reported measurement
O=C1NC(=O)[C@@H](c2cn3c4c(cccc24)CCC3)[C@@H]1c1c[nH]c2ccccc12 [Tivantinib] (max concentration tested 1000 nM)	%	17.4
O=C(CCCCCCC(=O)Nc1ccc([C@H]2O[C@@H](CSc3nc(-c4ccccc4)c(-c4ccccc4)o3)C[C@@H](c3ccc(CO)cc3)O2)cc1)NO [Tubacin] (max concentration tested 10000 nM)	%	-0.47

Shift focus to the following entry.
QUERY: For Cc1cc(Nc2nc(N[C@@H](C)c3ncc(F)cn3)ncc2Cl)[nH]n1 [AZD1480] (max concentration tested 1000 nM) , what is its reported percent inhibition of viability?
RESULT: 58.1

* * *

relative IC50 values by entry
System: DERL-7 (IL-2 2.5 ng/mL)
Assay: relative IC50 (inflection point of fitted viability curve, relative to fitted max inhibition); higher = less sensitive
Details: 72 h
API: value field is a number in nM; no unit string.

compound	system name	reported measurement
CC(C)[C@H](C(=O)Nc1ccc(C(=O)NO)cc1)c1ccccc1 [AR-42]	DERL-7 (IL-2 2.5 ng/mL)	331
O=C1NC(=O)[C@@H](c2cn3c4c(cccc24)CCC3)[C@@H]1c1c[nH]c2ccccc12 [Tivantinib]	DERL-7 (IL-2 2.5 ng/mL)	347
Nc1nc(Cl)nc2c1ncn2[C@@H]1O[C@H](CO)[C@@H](O)[C@@H]1F [Clofarabine]	DERL-7 (IL-2 2.5 ng/mL)	21.7
CC(C)NC[C@@H](C(=O)N1CCN(c2ncnc3c2[C@H](C)C[C@H]3O)CC1)c1ccc(Cl)cc1 [GDC-0068]	DERL-7 (IL-2 2.5 ng/mL)	1030
CC/C(=C(\c1ccccc1)c1ccc(OCCN(C)C)cc1)c1ccccc1 [Tamoxifen]	DERL-7 (IL-2 2.5 ng/mL)	1680
N#Cc1ccc2[nH]c(O)c(-c3ccc(CN4CCOCC4)cn3)c2c1 [AZD-1080]	DERL-7 (IL-2 2.5 ng/mL)	3420

QUERY: For CCCCCCCCc1ccc(CCC(N)(CO)CO)cc1 [Fingolimod] , what is its reported relative IC50?
RESULT: 2030

QUERY: For Cc1csc(-c2nnc(Nc3ccc(Oc4ncccc4-c4ccnc(N)n4)cc3)c3ccccc23)c1 [AMG-900] , what is its reported relative IC50?
RESULT: 11.1

* * *

percent inhibition of viability values by entry
Tested on: normal primary NK cells, pool 1 (3 donors), resting (IL-2 0 ng/mL)
Test: percent inhibition of viability; higher = more inhibition
Details: 72 h; 0.1 nM
State the value with its unit after it.

QUERY: For CC[C@]1(O)C[C@H]2CN(CCc3c([nH]c4ccccc34)[C@@](C(=O)OC)(c3cc4c(cc3OC)N(C=O)[C@H]3[C@@](O)(C(=O)OC)[C@H](OC(C)=O)[C@]5(CC)C=CCN6CC[C@]43[C@@H]65)C2)C1 [Vincristine] (max concentration tested 1000 nM) , what is its reported percent inhibition of viability?
RESULT: -21.8%

QUERY: For NC1(c2ccc(-c3nc4ccn5c(=O)[nH]nc5c4cc3-c3ccccc3)cc2)CCC1 [MK-2206] (max concentration tested 1000 nM) , what is its reported percent inhibition of viability?
RESULT: 11.9%

QUERY: For Cn1c(=O)n(-c2ccc(C(C)(C)C#N)cc2)c2c3cc(-c4cnc5ccccc5c4)ccc3ncc21 [Dactolisib] (max concentration tested 1000 nM) , what is its reported percent inhibition of viability?
RESULT: -1.73%

QUERY: For Cc1cc(Nc2nc(N[C@@H](C)c3ncc(F)cn3)ncc2Cl)[nH]n1 [AZD1480] (max concentration tested 1000 nM) , what is its reported percent inhibition of viability?
RESULT: -5.75%

QUERY: For Cc1cc2c(F)c(Oc3ncnn4cc(OC[C@@H](C)O)c(C)c34)ccc2[nH]1 [Brivanib] (max concentration tested 1000 nM) , what is its reported percent inhibition of viability?
RESULT: -11.7%

* * *

Test system: KHYG-1 (IL-2 2.5 ng/mL)
Assay: drug sensitivity score (DSS) (DSS units); higher = more sensitive; extreme values may be limits of the assay
Details: 72 h
observable: drug sensitivity score

molecule	system name	observable	reported measurement
CC(C)[C@H](C(=O)Nc1ccc(C(=O)NO)cc1)c1ccccc1 [AR-42] (max concentration tested 10000 nM)	KHYG-1 (IL-2 2.5 ng/mL)	drug sensitivity score	19.4

QUERY: What measured drug sensitivity score is associated with Cc1ccc(C(=O)Nc2ccc(CN3CCN(C)CC3)c(C(F)(F)F)c2)cc1C#Cc1cnc2cccnn12 [Ponatinib] (max concentration tested 1000 nM) on KHYG-1 (IL-2 2.5 ng/mL)?
RESULT: 4.12

QUERY: What measured drug sensitivity score is associated with Cn1cc(C2=C(c3cn(C4CCN(Cc5ccccn5)CC4)c4ccccc34)C(=O)NC2=O)c2ccccc21 [Enzastaurin] (max concentration tested 10000 nM) on KHYG-1 (IL-2 2.5 ng/mL)?
RESULT: 2

QUERY: What measured drug sensitivity score is associated with CC/C(=C(\c1ccccc1)c1ccc(OCCN(C)C)cc1)c1ccccc1 [Tamoxifen] (max concentration tested 10000 nM) on KHYG-1 (IL-2 2.5 ng/mL)?
RESULT: 4.33

QUERY: What measured drug sensitivity score is associated with Cc1cc2c(F)c(Oc3ncnn4cc(OC[C@@H](C)O)c(C)c34)ccc2[nH]1 [Brivanib] (max concentration tested 1000 nM) on KHYG-1 (IL-2 2.5 ng/mL)?
RESULT: 0

QUERY: What measured drug sensitivity score is associated with Cc1cccc(-c2nn3c(c2-c2ccnc4ccc(C(N)=O)cc24)CCC3)n1 [Galunisertib] (max concentration tested 1000 nM) on KHYG-1 (IL-2 2.5 ng/mL)?
RESULT: 0

QUERY: What measured drug sensitivity score is associated with CC(=O)OC[C@H]1O[C@@H]([S-])[C@H](OC(C)=O)[C@@H](OC(C)=O)[C@@H]1OC(C)=O.CCP(CC)CC.[Au+] [Auranofin] (max concentration tested 2500 nM) on KHYG-1 (IL-2 2.5 ng/mL)?
RESULT: 7.93

QUERY: What measured drug sensitivity score is associated with CC(C)(C)NC(=O)[C@H]1CC[C@H]2[C@@H]3CC[C@H]4NC(=O)C=C[C@]4(C)[C@H]3CC[C@]12C [Finasteride] (max concentration tested 10000 nM) on KHYG-1 (IL-2 2.5 ng/mL)?
RESULT: 0.04

QUERY: What measured drug sensitivity score is associated with CC1(COc2ccc3c(c2)ncn3-c2ccc3cccc(N4CCC(N)CC4)c3n2)COC1 [Crenolanib] (max concentration tested 10000 nM) on KHYG-1 (IL-2 2.5 ng/mL)?
RESULT: 8.48

QUERY: What measured drug sensitivity score is associated with COc1nc(N)nc2c1ncn2[C@@H]1O[C@H](CO)[C@@H](O)[C@@H]1O [Nelarabine] (max concentration tested 10000 nM) on KHYG-1 (IL-2 2.5 ng/mL)?
RESULT: 1.02

QUERY: What measured drug sensitivity score is associated with Clc1ccc(Nc2nnc(Cc3ccncc3)c3ccccc23)cc1 [Vatalanib] (max concentration tested 10000 nM) on KHYG-1 (IL-2 2.5 ng/mL)?
RESULT: 0.55

QUERY: What measured drug sensitivity score is associated with CN(N=O)C(=O)N[C@@H](C=O)[C@@H](O)[C@H](O)[C@H](O)CO [Streptozocin] (max concentration tested 10000 nM) on KHYG-1 (IL-2 2.5 ng/mL)?
RESULT: 0

QUERY: What measured drug sensitivity score is associated with Cn1c(Nc2ccc(C(F)(F)F)cc2)nc2cc(Oc3ccnc(-c4ncc(C(F)(F)F)[nH]4)c3)ccc21 [RAF265] (max concentration tested 1000 nM) on KHYG-1 (IL-2 2.5 ng/mL)?
RESULT: 3.28

QUERY: What measured drug sensitivity score is associated with O=C(CCCCCCC(=O)Nc1ccccc1)NO [Vorinostat] (max concentration tested 10000 nM) on KHYG-1 (IL-2 2.5 ng/mL)?
RESULT: 15.2

QUERY: What measured drug sensitivity score is associated with CC(C)N(C[C@H]1O[C@@H](n2cnc3c(N)ncnc32)[C@H](O)[C@@H]1O)[C@H]1C[C@@H](CCc2nc3cc(C(C)(C)C)ccc3[nH]2)C1 [EPZ-5676] (max concentration tested 1000 nM) on KHYG-1 (IL-2 2.5 ng/mL)?
RESULT: 1.32

QUERY: What measured drug sensitivity score is associated with COC[C@H](NC(=O)c1cnc(C)s1)C(=O)N[C@@H](COC)C(=O)N[C@@H](Cc1ccccc1)C(=O)[C@@]1(C)CO1 [Oprozomib] (max concentration tested 2500 nM) on KHYG-1 (IL-2 2.5 ng/mL)?
RESULT: 20.7
